Target: T1, CTLA4-Fc (Fitzgerald, #30R-CD152) (human, UniProt P16410 38-152)
T1 construct: Bought; also called human CTLA-4 (Fitzgerald); biotinylated-CTLA4; not shown: Fc part of the bought fusion, not described
T1 sequence (P16410 38-152 limits assumed): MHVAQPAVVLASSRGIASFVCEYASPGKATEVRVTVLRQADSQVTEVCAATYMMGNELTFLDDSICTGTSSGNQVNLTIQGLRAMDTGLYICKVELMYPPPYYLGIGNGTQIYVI
Assay: ELISA on coated CTLA4-Fc and CD28-Fc
Recorded EC50 binding ratio ([EC50 for CD28]/[EC50 for CTLA-4]) for the following binders
property name: EC50 binding ratio ([EC50 for CD28]/[EC50 for CTLA-4])

1) CD86 mutant 904 (ligand, Variant of the CD86 extracellular domain) LKIQAYFNETADLPCQFANSQNQSLSELIVFWQDQENLVLNEVYLGKERFDAVDSKYMGRTSFDSDSWTLRLHNLQIKDKGIYQCIIHHKKPSGMVKIHQMDSELSVLA: 12.2
2) CD86 mutant 938 (ligand, Variant of the CD86 extracellular domain) LKIQAYFNETADLPCQFANSQNQSLSELVVFWQDQENLILNEVYLGKEKFDSVHSKYMGRTSFDSDSWTLRLHNLQIKDKGIYQCIIHHKKPTGMVKIHQMNSELSVLA: 2
3) CD86 mutant 901 (ligand, Variant of the CD86 extracellular domain) LKIQAYFNETADLPCQFANSQNLTLSELVVFWQDQENLVLNEVYLGKEKFDSVHSKYMGRTSFDSDSWTLRLHNLQIKDKGIYQCVIHHKKPTGMIKIHEMNSELSVLT: 17.2
4) CD86 mutant 910 (ligand, Variant of the CD86 extracellular domain) LKIQAYFNETADLPCQFANSQNQSLSELVVFWQDQENLVLNEVYLGKEKFDSVDSKYMGRTSFDSDSWTLRLHNLQIKDKGIYQCIIHHKKPTGMVKIHEMNSELSVLA: 7.7
5) CD86 mutant 908 (ligand, Variant of the CD86 extracellular domain) LKIQAYFNETADLPCQFANSQNQSLSELVVFWQDQENLVLNEVYLGKEKFDSVHSKYMGRTSFDSDSWTLRLHNLQIKDKGIYQCIIHHKKPTGMVKIHEMNSELSVLA: 6.2
6) CD86 mutant 907 (ligand, Variant of the CD86 extracellular domain) LKIQAYFNETADLPCQFANSQNQSLSELVVFWQDQENLVLNEVYLGKEKFDSVHSKYMGRTSFDSDSWTLRLHNLQIKDKGLYQCIIHHKKPTGMIKIHEMNSELSVLA: 30.5
7) CD86 mutant 906 (ligand, Variant of the CD86 extracellular domain) LKIQAYINETADLPCQFANSQNLSLSELVVFWQDQENLVLNEVYLGKERFDSVDSKYMGRTSFDSDSWTLRLHNLQIKDKGFYQCIIHHKKPTGLVKIHEMNSELSVLA: 16.2
8) CD86 mutant 900 (ligand, Variant of the CD86 extracellular domain) LKIQAYFNETADLPCQFANSQNQSLSELVVFWQDQENLVLNEVYLGKEKFDSVDSKYMGRTSFDSDSWTLRLHNLQIKDKGIYQCVIHHKKPSGLVKIHEMNSELSVLA: 3.5
9) CD86 mutant 915 (ligand, Variant of the CD86 extracellular domain) LKIQAYFNETADLPCQFANSQNQSLSELVVFWQDQENLILNEVYLGKEKFDSVDSKYMGRTSFDSDSWTLRLHNLQIKDKGFYQCIIHHKKPSGLIKIHQMDSELSVLA: 9.9
10) human wild-type CD86 (monomeric soluble extracellular domain) (ligand, also called wild type protein) APLKIQAYFNETADLPCQFANSQNQSLSELVVFWQDQENLVLNEVYLGKEKFDSVHSKYMGRTSFDSDSWTLRLHNLQIKDKGLYQCIIHHKKPTGMIRIHQMNSELSVLA: 3.4
